A collection of binders and their measured Nucleation assay Δ lag at 1.25 µM compound
- target.or.system: Aβ1-40 peptide (monomeric start material of the nucleation assay)
- protocol.text: cell-based or functional assay
Square brackets hold non-standard residues; d marks the D form. * marks the point of attachment. NHiPr = CC(C)N*
property: Nucleation assay Δ lag at 1.25 µM compound

binder="H-[dL][dV][dF][dF][dA]-NMe2 (also: TFA salt) [PPI-993: TFA • H-(lvffa)-dimethylamide]" result="1 ratio of lag time to control"
binder="{N,N‑dimethyl}-G[dA][dF][dF][dV][dL]-NH2 (also: TFA salt) [PPI-803: TFA • N,N-dimethyl-(Gaffvl)-NH2]" result="< 1 ratio of lag time to control"
binder="H-[dL][dV][dF][dF][dA]-NHiPr (also: TFA salt) [PPI-992: TFA • H-(lvffa)-isopropylamide]" result="1 ratio of lag time to control"
